testDescription: xn = mol fraction of the nth substance listed, in the solute-free solvent
reportedConditions: 293.15 K; x2 = 0.8
readoutLabel: solubility (g/100 g solution)

Some compounds with recorded solubility (g/100 g solution):
Measured solubility (g/100 g solution) of Cl.NC(C=O)C(O)C(O)C(O)CO (centres undefined) + O + CO : 12.8

Measured solubility (g/100 g solution) of O=CC(O)C(O)C(O)CO (centres undefined) + CO + ClCCl : 10.8

Measured solubility (g/100 g solution) of Cc1nc(C)c(C)nc1C + CO + CC#N : 50.8

Measured solubility (g/100 g solution) of O=CC(O)C(O)C(O)CO (centres undefined) + CCO + ClCCl : 3.23

Measured solubility (g/100 g solution) of O=c1cc(-c2ccccc2)oc2cc(O)c(O)c(O)c12 + CCO + O : 0.574

Measured solubility (g/100 g solution) of O=CC(O)C(O)C(O)CO (centres undefined) + CCO + CCCCCC : 1.56

Measured solubility (g/100 g solution) of Cl.NC(C=O)C(O)C(O)C(O)CO (centres undefined) + O + CCO : 8.59

a: O=CC(O)C(O)C(O)CO (centres undefined) + CC(C)O + CCCCCC
b: Cc1nc(C)c(C)nc1C + CCCCO + CC#N
Query block: Hello, I am sorting some records. Could you say if a or b has the smaller solubility (g/100 g solution) value? Your answer should be the label attached to the chosen record.
Result block: a
(a: 0.819, b: 38.4)

###

testDescription: xn = mol fraction of the nth substance listed, in the solute-free solvent
reportedConditions: 308.15 K; x2 = 0.2
readoutLabel: solubility (g/100 g solution)

A: Cl.NC(C=O)C(O)C(O)C(O)CO (centres undefined) + O + CO
B: Cc1nc(C)c(C)nc1C + CCCCO + CC#N
C: O=c1cc(-c2ccccc2)oc2cc(O)c(O)c(O)c12 + CCO + O
Query block: Please list the entries, largest solubility (g/100 g solution) first. Returns: the labels arranged in the requested order.
Result block: B, A, C

###

testDescription: xn = mol fraction of the nth substance listed, in the solute-free solvent
reportedConditions: 283.15 K; x2 = 0.6
readoutLabel: solubility (g/100 g solution)

Measured solubility (g/100 g solution) of O=c1cc(-c2ccccc2)oc2cc(O)c(O)c(O)c12 + CCO + O : 0.413

P: Cc1nc(C)c(C)nc1C + CO + CC#N
Q: O=CC(O)C(O)C(O)CO (stereo unspecified) + CCO + CCCCCC
R: Cl.NC(C=O)C(O)C(O)C(O)CO (stereo unspecified) + O + CO
S: O=CC(O)C(O)C(O)CO (stereo unspecified) + CCO + ClCCl
Query block: Rank order required: solubility (g/100 g solution), descending. Returns: the labels arranged in the requested order.
Result block: P, R, S, Q

###

testDescription: xn = mol fraction of the nth substance listed, in the solute-free solvent
reportedConditions: 293.15 K; x2 = 0.7
readoutLabel: solubility (g/100 g solution)

Measured solubility (g/100 g solution) of O=CC(O)C(O)C(O)CO (configuration not stated) + CCO + ClCCl : 2.96

Measured solubility (g/100 g solution) of Cc1nc(C)c(C)nc1C + CO + CC#N : 49.4

Measured solubility (g/100 g solution) of O=CC(O)C(O)C(O)CO (configuration not stated) + CO + ClCCl : 7.17

P: Cl.NC(C=O)C(O)C(O)C(O)CO (configuration not stated) + O + CCO
Q: O=CC(O)C(O)C(O)CO (configuration not stated) + CCO + CCCCCC
R: Cc1nc(C)c(C)nc1C + CCCCO + CC#N
S: O=CC(O)C(O)C(O)CO (configuration not stated) + CC(C)O + CCCCCC
Query block: Order the entries by their reported solubility (g/100 g solution), beginning at the minimum. Returns: the labels arranged in the requested order.
Result block: S, Q, P, R
(S: 0.646, Q: 1.07, P: 5.18, R: 39.3)

Measured values drawn from the CheMixHub drug solubility set for this set.
